Origin of the recorded values: patent US20140056903A1

TARGET: T1, human GFRα3 expressed with a C-terminal myc-myc-hexahistidine tag (human, UniProt O60609 32-374, biotinylated (sites not given) in ELISA format 2 and in the Octet cross-competition; not in SPR)
T1 construct: also called hGFRα3-mmh; hGFRα3-mmH
T1 sequence (O60609 other isoform, or with tags, fused parts or gaps limits assumed): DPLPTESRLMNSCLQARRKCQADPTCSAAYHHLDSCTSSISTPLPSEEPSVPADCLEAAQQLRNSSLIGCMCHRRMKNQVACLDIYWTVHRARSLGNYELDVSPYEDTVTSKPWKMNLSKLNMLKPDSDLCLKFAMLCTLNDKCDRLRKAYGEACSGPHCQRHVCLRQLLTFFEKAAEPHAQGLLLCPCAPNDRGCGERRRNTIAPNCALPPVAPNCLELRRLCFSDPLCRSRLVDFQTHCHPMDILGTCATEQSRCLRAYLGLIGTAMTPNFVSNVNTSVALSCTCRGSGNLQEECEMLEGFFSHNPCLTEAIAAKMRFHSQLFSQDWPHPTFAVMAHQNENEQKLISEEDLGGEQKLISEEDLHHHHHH
ASSAY INFO: Octet cross-competition; biotin-hGFRα3-mmH pre-saturated with first antibody H4H2243N2
Can you tell me binding response of second antibody (nm) for the items I'm about to list?
Respond with the bare value in nm.

Name the recorded binding response of second antibody (nm) for H4H2352S (antibody, human IgG4, V domains shown, human IgG4 Fc (H4H); also called H4H2352S-1) VH: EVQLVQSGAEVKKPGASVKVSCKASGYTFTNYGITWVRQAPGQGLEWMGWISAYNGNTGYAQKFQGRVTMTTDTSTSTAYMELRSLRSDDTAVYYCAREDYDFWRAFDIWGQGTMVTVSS VL: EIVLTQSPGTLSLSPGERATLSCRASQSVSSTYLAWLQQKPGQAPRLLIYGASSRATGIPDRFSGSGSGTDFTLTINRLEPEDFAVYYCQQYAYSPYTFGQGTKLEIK .
0.46

Name the recorded binding response of second antibody (nm) for H4H2342P (antibody, human IgG4, V domains shown, human IgG4 Fc (H4H)) VH: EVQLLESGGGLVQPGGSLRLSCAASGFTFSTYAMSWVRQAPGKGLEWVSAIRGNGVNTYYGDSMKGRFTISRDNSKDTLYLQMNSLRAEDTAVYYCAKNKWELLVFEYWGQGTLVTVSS VL: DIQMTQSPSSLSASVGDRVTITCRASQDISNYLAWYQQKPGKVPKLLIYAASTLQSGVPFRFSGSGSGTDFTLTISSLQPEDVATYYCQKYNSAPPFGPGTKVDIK .
0.15

Name the recorded binding response of second antibody (nm) for H4H2236N3 (antibody, human IgG4, V domains shown, human IgG4 Fc (H4H)) VH: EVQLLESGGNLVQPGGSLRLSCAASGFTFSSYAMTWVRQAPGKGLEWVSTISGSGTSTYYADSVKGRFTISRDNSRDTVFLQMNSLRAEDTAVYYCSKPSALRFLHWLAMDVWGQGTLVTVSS VL: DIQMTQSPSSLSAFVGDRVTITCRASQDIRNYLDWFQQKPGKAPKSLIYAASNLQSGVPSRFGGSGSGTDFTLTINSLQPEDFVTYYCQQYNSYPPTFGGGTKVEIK .
0.3
